# System: Rattus norvegicus
# PROCEDURE TEXT: Toxicity in anesthetized-normotensive Wistar rat assessed as heart rate at 40 mg/kg, ip measured immediately at 0 min (reference value: 316.62 +/- 9.643 bpm)
# Format: organism-based
# Set-up: dose 40 mg/kg, route intraperitoneal
# CONDITION DESCRIPTION: in vivo, 0 h

{"columns": ["COMPOUND", "TARGET OF ASSAY", "READING UNIT", "Activity"],
 "data": [
  ["O=C1/C(=C\\c2ccccc2)S/C(=N\\c2ccccc2)N1CC(O)CN1CCCCC1 (centres undefined)", "Rattus norvegicus", "bpm", 308.43],
  ["O=C1/C(=C\\c2ccccc2)S/C(=N\\c2ccccc2)N1CC(O)CN1CCN(c2ccccc2)CC1 (centres undefined)", "Rattus norvegicus", "bpm", 318.34],
  ["O=C1/C(=C\\c2ccccc2)S/C(=N\\c2ccccc2)N1CC(O)CN1CCC(C(O)(c2ccccc2)c2ccccc2)CC1 (centres undefined)", "Rattus norvegicus", "bpm", 332.05],
  ["CC(C)N1CCN(CC(O)CN2C(=O)/C(=C\\c3ccccc3)S/C2=N\\c2ccccc2)CC1 (centres undefined)", "Rattus norvegicus", "bpm", 310.34],
  ["O=C1/C(=C\\c2ccccc2)S/C(=N\\c2ccccc2)N1CC(O)CN(c1ccccc1)c1ccccc1 (centres undefined)", "Rattus norvegicus", "bpm", 316.34],
  ["CCN(CC)CC(O)CN1C(=O)/C(=C\\c2ccccc2)S/C1=N\\c1ccccc1 (centres undefined)", "Rattus norvegicus", "bpm", 319.65],
  ["CN1CCN(CC(O)CN2C(=O)/C(=C\\c3ccccc3)S/C2=N\\c2ccccc2)CC1 (centres undefined)", "Rattus norvegicus", "bpm", 305.65],
  ["CCCN(CCC)CC(O)CN1C(=O)/C(=C\\c2ccccc2)S/C1=N\\c1ccccc1 (centres undefined)", "Rattus norvegicus", "bpm", 329.62],
  ["O=C1/C(=C\\c2ccccc2)S/C(=N\\c2ccccc2)N1CC(O)CN1CCCC1 (centres undefined)", "Rattus norvegicus", "bpm", 318.73]
]}
